testedOn: T1, human FcRn/b2M (human, UniProt P61769 21-119, biotinylated)
T1 construct: bought recombinant biotinylated protein (ACRO FCM-H82W4 or Immunitrack ITF01); also called hFcRn; hFcRn/hb2M
testProtocol: SPR pH 6.0;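 also: surface plasmon resonance kinetics at 25 °C, diluted periplasmic extracts injected over immobilized ligand surfaces, 120 s association then 600–3600 s dissociation, running buffer containing 150 mM NaCl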
recordedEndpoint: koff (s⁻¹)
Give a bare numeral; the unit s⁻¹ is implied.

binder	unitAnnotation	koff
T0263018B11 G26M (VHH, name in Kabat numbering, FLAG3-His6 tagged) VHH: EVQLVESGGGVVQPGGSLRLSCAASMFTFSSYAMYWVRQAPGKGLEWVSAISSGGGSTDYADSVKGRFTISRDNSKNTLYLQMNSLRPEDTALYYCAADTLYTSLTWYSYWGQGTLVTVSS	s⁻¹	0.00063
T0263018B11 Y32M (VHH, name in Kabat numbering, FLAG3-His6 tagged) VHH: EVQLVESGGGVVQPGGSLRLSCAASGFTFSSMAMYWVRQAPGKGLEWVSAISSGGGSTDYADSVKGRFTISRDNSKNTLYLQMNSLRPEDTALYYCAADTLYTSLTWYSYWGQGTLVTVSS	s⁻¹	0.006
T0263018B11 Y32T (VHH, name in Kabat numbering, FLAG3-His6 tagged) VHH: EVQLVESGGGVVQPGGSLRLSCAASGFTFSSTAMYWVRQAPGKGLEWVSAISSGGGSTDYADSVKGRFTISRDNSKNTLYLQMNSLRPEDTALYYCAADTLYTSLTWYSYWGQGTLVTVSS	s⁻¹	0.0045
T0263018B11 S30Q (VHH, name in Kabat numbering, FLAG3-His6 tagged) VHH: EVQLVESGGGVVQPGGSLRLSCAASGFTFQSYAMYWVRQAPGKGLEWVSAISSGGGSTDYADSVKGRFTISRDNSKNTLYLQMNSLRPEDTALYYCAADTLYTSLTWYSYWGQGTLVTVSS	s⁻¹	0.00085
T0263018B11 F29S (VHH, name in Kabat numbering, FLAG3-His6 tagged) VHH: EVQLVESGGGVVQPGGSLRLSCAASGFTSSSYAMYWVRQAPGKGLEWVSAISSGGGSTDYADSVKGRFTISRDNSKNTLYLQMNSLRPEDTALYYCAADTLYTSLTWYSYWGQGTLVTVSS	s⁻¹	0.0016
T0263018B11 T96I (VHH, name in Kabat numbering, FLAG3-His6 tagged) VHH: EVQLVESGGGVVQPGGSLRLSCAASGFTFSSYAMYWVRQAPGKGLEWVSAISSGGGSTDYADSVKGRFTISRDNSKNTLYLQMNSLRPEDTALYYCAADILYTSLTWYSYWGQGTLVTVSS	s⁻¹	0.00069

Qu. GET /values?readout=koff&item= T0263018B11 T28P (VHH, name in Kabat numbering, FLAG3-His6 tagged) VHH: EVQLVESGGGVVQPGGSLRLSCAASGFPFSSYAMYWVRQAPGKGLEWVSAISSGGGSTDYADSVKGRFTISRDNSKNTLYLQMNSLRPEDTALYYCAADTLYTSLTWYSYWGQGTLVTVSS
Ans. 0.0015

Qu. And then T0263018B11 W100cQ (VHH, name in Kabat numbering, FLAG3-His6 tagged) VHH: EVQLVESGGGVVQPGGSLRLSCAASGFTFSSYAMYWVRQAPGKGLEWVSAISSGGGSTDYADSVKGRFTISRDNSKNTLYLQMNSLRPEDTALYYCAADTLYTSLTQYSYWGQGTLVTVSS , what is it?
Ans. 0.009

Qu. And then T0263018B11 G26Q (VHH, name in Kabat numbering, FLAG3-His6 tagged) VHH: EVQLVESGGGVVQPGGSLRLSCAASQFTFSSYAMYWVRQAPGKGLEWVSAISSGGGSTDYADSVKGRFTISRDNSKNTLYLQMNSLRPEDTALYYCAADTLYTSLTWYSYWGQGTLVTVSS , what is it?
Ans. 0.00065
